# tgt: human DHFR (Homo sapiens, UniProt P00374)
# Sequence (P00374 whole entry): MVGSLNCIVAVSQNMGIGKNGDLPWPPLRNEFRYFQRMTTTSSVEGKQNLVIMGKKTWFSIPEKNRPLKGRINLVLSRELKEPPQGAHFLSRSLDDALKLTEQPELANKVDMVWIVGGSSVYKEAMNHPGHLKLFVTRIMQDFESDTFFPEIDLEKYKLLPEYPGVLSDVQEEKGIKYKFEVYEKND
# protocol.summary: Inhibition of isolated human DHFR
experimental.readout: IC50 (nM)
Write it as a number; the unit nM goes unstated.

The compound listed as CC(C)c1c(Sc2ccc(C(=O)N[C@@H](CCC(=O)O)C(=O)O)cc2)[nH]c2nc(N)nc(N)c12 [Compound 4] has a reported IC50 of 90

----------
Listing: % inhibition TS E. coli (number in parenthesis) of selected compounds
# tgt: E. coli TS (Escherichia coli, UniProt P0A884)
# Sequence (P0A884 whole entry): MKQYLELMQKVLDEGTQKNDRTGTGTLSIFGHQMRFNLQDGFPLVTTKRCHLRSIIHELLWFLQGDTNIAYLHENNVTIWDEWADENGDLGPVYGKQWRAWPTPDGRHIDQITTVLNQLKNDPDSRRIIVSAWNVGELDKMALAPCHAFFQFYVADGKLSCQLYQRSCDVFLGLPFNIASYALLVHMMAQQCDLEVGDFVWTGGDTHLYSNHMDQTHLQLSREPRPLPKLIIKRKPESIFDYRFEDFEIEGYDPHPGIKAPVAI
# protocol.summary: Inhibition of isolated E. coli TS
# Type: biochemical
# reported.conditions: at the concentration given
Write it as a number; the unit % goes unstated.

The compound listed as CCCc1c(Sc2c(Cl)cccc2Cl)[nH]c2nc(N)nc(N)c12 [Compound 11] has a reported % inhibition TS E. coli (number in parenthesis) of 0

The compound listed as CCCc1c(Sc2ccc(OC)cc2)[nH]c2nc(N)nc(N)c12 [Compound 14] has a reported % inhibition TS E. coli (number in parenthesis) of 0

The compound listed as COc1ccc(Sc2[nH]c3nc(N)nc(N)c3c2C(C)C)cc1 [Compound 22] has a reported % inhibition TS E. coli (number in parenthesis) of 0
